The entries below come with measured relative binding affinity values attached.
target of assay: T1, human CD81 mutant S168T (human, UniProt P60033 1-236, limits assumed)
T1 construct: as m30; not shown: C-terminal V5 and 6xHis tags
T1 sequence: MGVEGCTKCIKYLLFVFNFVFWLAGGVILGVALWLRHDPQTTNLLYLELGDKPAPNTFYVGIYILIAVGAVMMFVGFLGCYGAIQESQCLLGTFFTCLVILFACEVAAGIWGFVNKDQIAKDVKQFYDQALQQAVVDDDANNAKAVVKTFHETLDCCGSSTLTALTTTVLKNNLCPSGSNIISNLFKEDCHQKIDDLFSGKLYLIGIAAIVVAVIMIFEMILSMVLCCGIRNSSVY
test method notes: ELISA
measurement name: relative binding affinity

1. 002-A07 N113Q (antibody, human IgG4 S228P, lambda, V domains shown, IgG4 S228P; glycosylation site mutant of 002-A07 VL) VH: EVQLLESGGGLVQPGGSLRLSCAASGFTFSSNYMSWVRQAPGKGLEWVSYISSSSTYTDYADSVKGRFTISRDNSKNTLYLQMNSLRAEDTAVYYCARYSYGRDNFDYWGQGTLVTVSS VL: QSVLTQPPSASGTPGQRVTISCTGSTSNIGAGYDTHWYQQLPGTAPKLLIYGNSNRPSGVPDRFSGSKSGTSASLAISGLRSEDEADYYCQSYDTQLSVWVFGGGTKLTVLG ... < 20%
2. 002-F05 (antibody, human IgG4 S228P, lambda, V domains shown, IgG4 S228P) VH: EVQLLESGGGLVQPGGSLRLSCAASGFTFSSNYMSWVRQAPGKGLEWVSYISSSSTYTDYADSVKGRFTISRDNSKNTLYLQMNSLRAEDTAVYYCARYSYGRDDFDYWGQGTLVTVSS VL: QSVLTQPASASGTPGQRVTISCTGSTSNIGAGYDTHWYQQLPGTAPKLLIYGNSNRPSGVPDRFSGSKSGTSASLAISGLRSEDEADYYCQSYDTNLNVWVFGGGTKLTVLG ... < 20%
